# assayed_system: UniProt P00519
# Sequence (P00519 whole entry): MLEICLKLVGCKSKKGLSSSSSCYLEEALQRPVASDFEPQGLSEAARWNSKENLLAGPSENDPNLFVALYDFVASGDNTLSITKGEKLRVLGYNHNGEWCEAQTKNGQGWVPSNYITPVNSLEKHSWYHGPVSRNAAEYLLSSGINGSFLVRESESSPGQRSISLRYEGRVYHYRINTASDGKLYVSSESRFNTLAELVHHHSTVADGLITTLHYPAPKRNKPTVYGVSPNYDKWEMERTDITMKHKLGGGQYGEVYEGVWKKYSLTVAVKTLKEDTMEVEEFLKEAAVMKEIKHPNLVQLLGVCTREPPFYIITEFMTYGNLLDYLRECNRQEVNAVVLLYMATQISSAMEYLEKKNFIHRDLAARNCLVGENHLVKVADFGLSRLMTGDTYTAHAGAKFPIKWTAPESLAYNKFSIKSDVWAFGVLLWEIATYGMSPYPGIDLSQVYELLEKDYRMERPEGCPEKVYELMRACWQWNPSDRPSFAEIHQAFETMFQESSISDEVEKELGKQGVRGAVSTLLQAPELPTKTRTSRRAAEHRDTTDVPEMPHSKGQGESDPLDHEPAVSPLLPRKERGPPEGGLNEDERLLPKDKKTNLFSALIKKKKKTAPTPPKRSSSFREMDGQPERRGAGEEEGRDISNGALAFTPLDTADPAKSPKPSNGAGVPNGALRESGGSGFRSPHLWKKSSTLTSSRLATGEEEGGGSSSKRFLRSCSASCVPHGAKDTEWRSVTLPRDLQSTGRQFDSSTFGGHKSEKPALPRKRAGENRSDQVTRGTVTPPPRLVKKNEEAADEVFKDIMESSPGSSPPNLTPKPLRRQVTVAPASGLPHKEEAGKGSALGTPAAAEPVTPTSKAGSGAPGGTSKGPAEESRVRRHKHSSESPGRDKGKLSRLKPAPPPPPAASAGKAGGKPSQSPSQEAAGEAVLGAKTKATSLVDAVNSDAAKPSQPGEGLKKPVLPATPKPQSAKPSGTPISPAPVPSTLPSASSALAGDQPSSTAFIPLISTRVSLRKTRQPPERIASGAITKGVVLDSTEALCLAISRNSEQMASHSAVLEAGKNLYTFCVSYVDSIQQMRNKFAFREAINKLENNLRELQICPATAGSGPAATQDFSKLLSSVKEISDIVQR
endpoint_label: Kd (nM)
# value in nM; strip the unit string

Request the reported Kd associated with `COc1ccc2c(C(=O)Nc3ccc(NC(=O)c4nn(C5CCN(C(=O)CC(C)(C)C#N)CC5)c5ccc(F)cc45)cc3Cl)cnn2c1`
353

###

# assayed_system: BTK (Homo sapiens)
# Sequence (Q06187 whole entry): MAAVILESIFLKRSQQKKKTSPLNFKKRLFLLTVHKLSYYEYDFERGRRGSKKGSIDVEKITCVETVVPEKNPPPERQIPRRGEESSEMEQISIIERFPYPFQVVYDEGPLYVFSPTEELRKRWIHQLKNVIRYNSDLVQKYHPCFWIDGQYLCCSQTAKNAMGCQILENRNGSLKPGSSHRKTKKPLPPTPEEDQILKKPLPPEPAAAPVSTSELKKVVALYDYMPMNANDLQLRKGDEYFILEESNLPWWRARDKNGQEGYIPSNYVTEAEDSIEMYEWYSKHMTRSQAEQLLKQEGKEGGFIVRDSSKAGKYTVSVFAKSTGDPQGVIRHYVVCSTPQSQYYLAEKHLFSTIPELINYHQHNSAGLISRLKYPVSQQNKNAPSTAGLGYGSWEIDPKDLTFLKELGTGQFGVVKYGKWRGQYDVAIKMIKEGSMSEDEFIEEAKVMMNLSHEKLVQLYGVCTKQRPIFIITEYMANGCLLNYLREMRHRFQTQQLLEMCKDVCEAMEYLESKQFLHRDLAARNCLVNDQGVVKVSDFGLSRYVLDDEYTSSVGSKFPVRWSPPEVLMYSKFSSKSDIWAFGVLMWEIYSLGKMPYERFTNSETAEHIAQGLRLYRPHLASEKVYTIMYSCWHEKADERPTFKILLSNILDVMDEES
endpoint_label: pKd
Field pKd (float): negative decimal logarithm of the concentration in molar.

Request the reported pKd associated with `COc1ccc2c(C(=O)Nc3ccc(NC(=O)c4nn(C5CCN(C(=O)CC(C)(C)C#N)CC5)c5ccc(F)cc45)cc3Cl)cnn2c1`
5.51
